# TARGET ENTITY: T1, VCAM (Panvera) (UniProt P19320 25-698, limits assumed)
# T1 sequence (looked up): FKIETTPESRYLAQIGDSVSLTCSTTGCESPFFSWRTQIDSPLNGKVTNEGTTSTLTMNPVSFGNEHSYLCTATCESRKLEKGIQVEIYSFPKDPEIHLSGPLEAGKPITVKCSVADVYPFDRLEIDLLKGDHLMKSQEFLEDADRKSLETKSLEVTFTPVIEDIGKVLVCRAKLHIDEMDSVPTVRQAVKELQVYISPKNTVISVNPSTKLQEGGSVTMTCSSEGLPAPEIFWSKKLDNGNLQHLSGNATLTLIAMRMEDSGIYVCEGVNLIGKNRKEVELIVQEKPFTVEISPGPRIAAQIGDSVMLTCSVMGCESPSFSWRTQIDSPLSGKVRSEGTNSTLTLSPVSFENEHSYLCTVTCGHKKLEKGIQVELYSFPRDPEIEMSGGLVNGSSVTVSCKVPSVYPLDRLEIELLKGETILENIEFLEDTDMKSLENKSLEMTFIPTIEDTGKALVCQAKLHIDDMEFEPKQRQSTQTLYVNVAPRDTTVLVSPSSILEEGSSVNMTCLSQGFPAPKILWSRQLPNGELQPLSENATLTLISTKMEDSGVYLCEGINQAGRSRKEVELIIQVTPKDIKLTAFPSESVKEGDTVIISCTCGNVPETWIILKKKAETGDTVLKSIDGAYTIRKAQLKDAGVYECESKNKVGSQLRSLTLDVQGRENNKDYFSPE
# METHOD SUMMARY: cell-based or functional assay
Each entry below carries its reported inhibition of adhesion of α4β1+/α5β1+ Jurkat T-cells to coated VCAM.

# BINDER, REPORTED
rows = [
    ("anti-MAdCAM monoclonal antibody 6.77.1 (antibody, human IgG4, kappa, V domains shown, fully human IgG4 kappa from hybridoma; signal peptide left out; kappa chain stained positive for glycosylation) VH: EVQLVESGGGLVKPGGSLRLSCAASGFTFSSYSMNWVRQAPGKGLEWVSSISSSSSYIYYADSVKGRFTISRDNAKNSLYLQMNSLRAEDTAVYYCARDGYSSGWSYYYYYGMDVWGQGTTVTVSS VL: DIVMTQTPLSLSVTPGQPASISCNSSQSLLLSDGKTYLNWYLQKPGQPPQLLIYEVSNRFSGVPDRFSGSGSGTDFTLKISRVEAEDVGVYSCMQSIQLMCSFGQGTKLEIKR", "> 100 fold"),
    ("anti-MAdCAM monoclonal antibody 7.26.4 (antibody, human IgG2, kappa, V domains shown, fully human IgG2 kappa from hybridoma; signal peptide left out; kappa chain glycosylation confirmed) VH: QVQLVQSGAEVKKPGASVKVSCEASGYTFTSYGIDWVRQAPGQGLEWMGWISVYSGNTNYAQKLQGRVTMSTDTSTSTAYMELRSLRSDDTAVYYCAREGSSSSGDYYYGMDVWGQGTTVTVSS VL: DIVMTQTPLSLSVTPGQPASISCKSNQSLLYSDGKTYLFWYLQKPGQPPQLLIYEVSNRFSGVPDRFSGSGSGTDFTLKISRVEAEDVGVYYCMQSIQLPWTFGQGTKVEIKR", "> 100 fold"),
]

## Input Give the measured inhibition of adhesion of α4β1+/α5β1+ Jurkat T-cells to coated VCAM of anti-MAdCAM monoclonal antibody 6.34.2 (antibody, human IgG4, kappa, V domains shown, fully human IgG4 kappa from hybridoma; signal peptide left out; kappa chain stained positive for glycosylation) VH: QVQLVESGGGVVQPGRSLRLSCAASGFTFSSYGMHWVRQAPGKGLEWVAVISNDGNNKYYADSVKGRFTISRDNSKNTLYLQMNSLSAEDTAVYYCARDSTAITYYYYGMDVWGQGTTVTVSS VL: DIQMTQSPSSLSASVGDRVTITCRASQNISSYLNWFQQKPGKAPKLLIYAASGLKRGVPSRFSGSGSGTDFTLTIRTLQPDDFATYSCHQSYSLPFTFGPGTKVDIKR .
## Output > 100 fold

Taken from patent US20070166308A1.
